- Tested on: EKVX NSCLC
- PROTOCOL SUMMARY: NCI tumour cell line growth inhibition, 48 h; in the data active means GI50 below about 0.43 µM; inactive means the rest
A correct response names exactly one class from 1 (active), 0 (inactive)

>>> class("O=C(Nc1ccc(-n2cc(-c3ccncc3)c(-c3ccc(O)c(Cl)c3)n2)cc1)c1ccc(Cl)c(C(F)(F)F)c1")
0
>>> class("O=C(O)Cn1c2c(c3c1-c1ccccc1C3=O)C(=O)CCC2")
0
>>> class("CN1CCN(C(=O)c2ccc(NC(=O)Nc3ccc(-c4nc(N5CCOCC5)c5cccn5n4)cc3)cc2)CC1")
1
>>> class("C=CC1C(CC2OC(CO)C(O)C(O)C2O)OC=C2C(=O)OCCC21O (configuration not stated)")
0
>>> class("O=c1cc(-c2ccccc2)[nH]c2c1CCCC2")
0
>>> class("COc1ccc(C2NN=C3c4ccccc4CCC32)cc1 (configuration not stated)")
0

Query molecule follows.
QUERY: Please state the recorded outcome for this molecule: `COc1cc(OC)c2c(=O)cc(-c3ccccc3OCc3ccccc3)oc2c1OC`
RESULT: 0
